Tested on: IGROV1 ovarian
METHOD_SUMMARY: NCI tumour cell line growth inhibition, 48 h
MEASURED_PARAMETER: TGI

// below: answered compounds
O=C(Nc1cccc(Cl)c1)Nn1cnnc1	> 100 µM
O=S(=O)(Nc1ccc(Br)cc1)c1ccc(-c2cnc(C3CC3)o2)cc1	15.8 µM
Cn1ccnc1CCc1c(Cl)cccc1Cl	> 100 µM
CCCCN(CCCC)Cc1cc(Nc2ccnc3cc(Cl)ccc23)ccc1O	> 100 µM
O=C(O)CCc1nc2c(n1-c1ccccc1)C(=O)c1ccccc1C2=O	> 100 µM

The compound identified as COC(=O)C1=C(O)C(C(=O)OC)C2CC(=O)CC1C2(C)C (centres undefined) registered its TGI at > 100 µM

The compound identified as COC(=O)/C(=N\NC(C)(C)C)C(C(=O)OC)C(=O)C(=O)Nc1cc(Cl)ccc1Cl (centres undefined) registered its TGI at > 100 µM

The compound identified as Cc1cc2c(C)nn(Cc3ccccc3)c2c(C(=O)O)c1C registered its TGI at > 100 µM

The compound identified as Cc1ccc2c(c1)-c1nc(N)c(C#N)c(-c3ccc(Cl)cc3)c1CCS2(=O)=O registered its TGI at > 100 µM

The compound identified as CN(C)c1cc2ccccc2oc1=O registered its TGI at > 100 µM

The compound identified as O=C(COc1ccccc1Cl)N1N=C(c2ccc(Cl)cc2)CC1(O)c1ccccc1 (centres undefined) registered its TGI at > 100 µM

====

System: HCT-116 colon
METHOD_SUMMARY: NCI tumour cell line growth inhibition, 48 h
MEASURED_PARAMETER: TGI

// below: answered compounds
CC1=C(C(=O)Nc2ccccc2C)C(c2ccc(Cl)cc2)C(C(=O)Nc2ccccc2C)=C(C)N1	> 100 µM
C=CCSC1=N/C(=C\c2ccc(Cl)cc2)C(=O)N1CC=C	> 100 µM
Cc1ccc(C(=N)c2ccccc2Cc2cccc3ccccc23)c2ccccc12	> 100 µM
Cc1c2cnccc2c(C)c2c1c1cc(C#N)ccc1n2C	0.593 µM

Consider now this further compound.
The compound identified as CCC/C(Cl)=N\OC(=O)Nc1ccc(F)cc1 registered its TGI at 31.1 µM

====

Tested on: SNB-19 CNS
METHOD_SUMMARY: NCI tumour cell line growth inhibition, 48 h
Recorded TGI values for a group of molecules are listed next.
Entry rule: numbers only, all in µM.

CC1CC[C@@]2(OC1)OC1C[C@H]3[C@@H]4CC=C5CC(OC6OC(CO)C(OC7OC(CO)C(O)C(OC8OCC(O)C(O)C8O)C7OC7OC(CO)C(OC8OC(C)C(OC9OC(C)C(O)C(O)C9O)C(O)C8O)C(O)C7O)C(O)C6O)CCC5(C)[C@H]4CCC3(C)C1[C@@H]2C (stereo partly specified)	11.6

The molecule identified as O=C1/C(=C/c2ccc([N+](=O)[O-])cc2)CN(C(=O)CCN2CCC(=NO)CC2)C/C1=C\c1ccc([N+](=O)[O-])cc1 registered its TGI at 5.13

The molecule identified as N#Cc1c(-c2ccc(Cl)cc2)c2c(nn3c4ccc5ccccc5c4nnc23)[nH]c1=O registered its TGI at 24.2

====

Recorded TGI values for a group of compounds are listed next.
System: PC-3 prostate
METHOD_SUMMARY: NCI tumour cell line growth inhibition, 48 h

// below: answered compounds
Cc1ccc2nc(SCC(=O)N=Nc3c(O)[nH]c4ccccc34)n(-c3ccccc3)c(=O)c2c1	36.1 µM
O=C1c2cccc([N+](=O)[O-])c2C(=O)N1Cc1ccccc1	> 100 µM
CC(=O)NC1C(OCc2ccccc2)OC(CO)C(O)C1OCC(=O)N1CCCC1C(=O)N[C@@H](CCC(=O)NCCCCNc1c2ccccc2nc2cccc([N+](=O)[O-])c12)C(N)=O (stereo partly specified)	60.3 µM
CO/N=C(\COc1ccc2c(c1)[nH]c1ccccc12)c1ccc(OC)cc1	> 100 µM
Cn1c(=O)c2[nH]c(N/N=N/c3nncs3)nc2n(C)c1=O	> 100 µM
Cn1c(=O)c2c(nc3n(CC(O)CCl)c(=O)ccn23)n(C)c1=O (stereo unspecified)	> 100 µM
C[C@H](c1ccccc1)N1C(=O)[C@@H](O)[C@H]1[C@H](CO)OCc1ccccc1	> 100 µM
CC(=O)Nc1ccc(-c2cc(C(=O)O)c3cc4ccccc4cc3n2)cc1	> 100 µM

The compound identified as CCN(CCCOc1ccccc1)CCN(CC)CCCOc1ccccc1 registered its TGI at 5.14 µM

The compound identified as O=C(Nc1cccc(Cl)c1)Nn1cnnc1 registered its TGI at > 100 µM

The compound identified as O=C(NCC1CC1)c1ccc(-c2cccc(C(=O)NC3CC3)c2)cc1 registered its TGI at > 25 µM
